# System: up to 32 different microorganisms
# experimental-details: in vitro antibacterial activity (MIC), agar dilution on Brain Heart Infusion (BHI) agar with Steers replicator
# Type: cell-based
# condition-parameters: organism code KK; unit assumed
property-label: MIC (µg/mL)
Provide only the numeric value, understood in µg/mL.

**Query** Tell me its MIC on up to 32 different microorganisms: `CC[C@H]1OC(=O)[C@H](C)C(=O)[C@H](C)[C@@H](O[C@@H]2O[C@H](C)C[C@H](N(C)C)[C@H]2O)[C@@](C)(OCC=NOCc2ccccc2)C[C@@H](C)C(=O)[C@H](C)[C@H]2NC(=O)O[C@@]21C`
**Result** 0.02

**Query** Enter recorded MIC with up to 32 different microorganisms for CCC1OC(=O)C(C)C(=O)C(C)C(OC2OC(C)CC(N(C)C)C2O)C(C)(OCCCc2cnc3ccccc3c2)CC(C)C(=O)C(C)C2NC(=O)OC12C (stereo not drawn) here.
**Result** 0.05
